- Tested on: RPMI-8226
- method: NCI tumour cell line growth inhibition, 48 h
Activity calls are given as the source filed them. Cut-off read from the data, not from the text of the source: active = GI50 up to about 1.1 µM and inactive = higher.
In this section we review reported GI50 values for a set of compounds.

compound | system_tested | GI50
Cc1cc2c(=O)c(C)n[nH]c2c(C#N)c1C | RPMI-8226 | > 100 µM (inactive)

Data request: What GI50 value was documented for this compound, "N=S(=O)(c1ccccc1)c1ccccc1" ?
Data returned: > 100 µM (inactive)

Data request: Next: "COC1=C(OC)CCC(/C(C#N)=C/c2ccc(OC)c(OC)c2)=C1"
Data returned: > 100 µM (inactive)

Data request: Same read-out for "COc1ccccc1NC(=O)C1=C(C)NC(C)=C(C(=O)Nc2ccccc2OC)C1C1=CC=COC1" ?
Data returned: 13.2 µM (inactive)

Data request: "COc1ccc(C)cc1NC(=S)N/N=C/c1ccc(SC)cc1" ?
Data returned: 27.9 µM (inactive)

Data request: // query: "O=S(=O)(O)c1ccc(-c2c3nc(c(-c4ccc(S(=O)(=O)O)cc4)c4ccc([nH]4)c(-c4ccc(S(=O)(=O)O)cc4)c4nc(c(-c5ccc(S(=O)(=O)O)cc5)c5ccc2[nH]5)C=C4)C=C3)cc1"
Data returned: 52.8 µM (inactive)

Data request: Further, for Clc1ccc2c(SCC3CO3)c3ccccc3nc2c1 (stereo not drawn) ?
Data returned: 2.42 µM (inactive)

Data request: Same for CCCC(=O)OC1C(CO)OC(n2cc(F)c(=O)[nH]c2=O)C1F (stereo not drawn)
Data returned: 1.57 µM (inactive)

---

- Tested on: CCRF-CEM
- method: NCI tumour cell line growth inhibition, 48 h
The source made the active and inactive calls. Rule as the data show it: active = GI50 up to about 1.1 µM and inactive = higher.
// classify into TRUE (active), FALSE (inactive)

Data request: // return assay outcome for C=CCC1C(O[Si](C)(C)C(C)(C)C)C(CO[Si](C)(C)C(C)(C)C)OC1n1ccc(=O)[nH]c1=O (configuration not stated)
Data returned: TRUE

Data request: And for c1cc2c(cc1C1OCC3C(c4ccc5c(c4)OCO5)OCC13)OCO2 (configuration not stated) ?
Data returned: FALSE

Data request: Check "CCOC(=O)/C(C(N)=O)=C(/O)c1cnccn1" too.
Data returned: FALSE

Data request: What about this molecule? "O=[N+]([O-])c1ccc2nc(O)c(/C=C(\O)c3ccccc3)nc2c1"
Data returned: FALSE

Data request: Follow-up entry: C[C@@H]1CC2(N=CCS2)[C@]2(O)O[C@@H]3C[C@@]4(C)[C@H](C[C@H]3O[C@@H]2O1)C[C@H]1O[C@]12[C@@H]4[C@H](O)C(=O)[C@]1(C)C(C3=CC(=O)OC3)CC[C@]21O (some centres not stated)
Data returned: TRUE

Data request: Input "CSc1nc(C)cc(Nc2ccc(O)c(CN3CCOCC3)c2)n1"
Data returned: FALSE

---

- Test system: BT-549
- method: NCI tumour cell line growth inhibition, 48 h
Active and inactive are the calls of the source. Rule as the data show it: active = GI50 up to about 1.1 µM and inactive = higher.
GI50 for assorted compounds

compound | GI50
CCOC(=O)c1c(-c2ccc(OC)cc2)ccn1C | > 10 µM (inactive)

// moving on: another record for GI50
Data request: Quick one: GI50 for "N#C/C(=C\c1cc(O)c(O)c(O)c1)C(N)=O" ?
Data returned: 97.5 µM (inactive)

---

A collection of molecules and their measured GI50
- Test system: UACC-257
- method: NCI tumour cell line growth inhibition, 48 h
Activity calls are given as the source filed them. No stated cut-off is given here; in the data, active = GI50 up to about 1.1 µM and inactive = higher.

Data request: Value lookup for GI50; key = "COc1ccc(CCNC(=O)c2ccccc2C2c3ccc(OCc4ccccc4)cc3Oc3cc(OCc4ccccc4)ccc32)cc1OC"
Data returned: 94.6 µM (inactive)

Data request: # repeat for "CN/C(N)=N/N=C1/C(=O)Nc2ccccc21"
Data returned: > 100 µM (inactive)

Data request: Another molecule: "CN(C)CCNC(=O)C(C)(C)Oc1ccc(C(=O)c2ccc(Cl)cc2)cc1Cl"
Data returned: 2 µM (inactive)

Data request: Follow-up entry: "Cn1cc(C(=O)c2ccccc2)c2ccccc2c1=O"
Data returned: > 100 µM (inactive)

Data request: What would you report for "Cc1cccc2c1C(=O)[C@@](C)([C@]1(C)Nc3cccc(C)c3C1=O)N2" ?
Data returned: > 100 µM (inactive)

Data request: Likewise for "O=S(=O)(O)c1ccc(-c2c3nc(c(-c4ccc(S(=O)(=O)O)cc4)c4ccc([nH]4)c(-c4ccc(S(=O)(=O)O)cc4)c4nc(c(-c5ccc(S(=O)(=O)O)cc5)c5ccc2[nH]5)C=C4)C=C3)cc1" ?
Data returned: > 100 µM (inactive)

Data request: Same thing, different molecule: COCOC1C=CCCCC2=CC(C)=C(CC1)O2 (stereo unspecified)
Data returned: > 100 µM (inactive)

Data request: Now give it for C=C1C(=O)C23CC1CCC2C12CO[C@@H]4OCC(C)(CC[C@@H]1OC3=O)C42 (stereo partly specified) too.
Data returned: 4.98 µM (inactive)
